The reported numbers originate from PubChem BioAssay (NCI).

Documented growth across a set of molecules
Test system: UACC-62 melanoma
procedureSummary: NCI-60 one-dose screen, 48 h (100 = growth as untreated, 0 = no growth, -100 = all killed)
testContext: 10 µM unless noted
About 83,000 compounds went through this panel and 20% of them were active in at least one assay; those are over-represented in the sample as a whole.
A number alone suffices; assume %.

Consider the worked cases shown below.
>  <molecule>
COc1cc(C#N)cc2[nH]c(=O)oc12

>  <assaySystem>
UACC-62 melanoma

>  <growth, %>
113

$$$$
>  <molecule>
CCC1=C[C@@H]2CN(C1)Cc1c([nH]c3ccccc13)[C@@](C(=O)OC)(c1cc3c(cc1OC)N(C)[C@H]1[C@@](O)(C(=O)OC)[C@H](OC(C)=O)[C@]4(CC)[C@@H]5C[C@@H]5CN5CC[C@]31[C@@H]54)C2

>  <assaySystem>
UACC-62 melanoma

>  <growth, %>
12.6

$$$$
>  <molecule>
COc1ccc(N2C(=O)CC(c3cc(OC)c(OC)c(OC)c3)C3C2=NC(=O)N3C)cc1 (stereo unspecified)

>  <assaySystem>
UACC-62 melanoma

>  <growth, %>
104

$$$$
>  <molecule>
CC(=O)n1cc(-c2c[nH]c3ccccc23)c(-c2ccc(Cl)cc2)n1

>  <assaySystem>
UACC-62 melanoma

>  <growth, %>
93.5

$$$$
>  <molecule>
CC1=C(C(=O)OCC2CCN(C(=O)OC(C)(C)C)CC2)[C@@H](c2cccc(C#N)c2)C2=C(CC(C)(C)CC2=O)N1

>  <assaySystem>
UACC-62 melanoma

>  <growth, %>
43

$$$$
>  <molecule>
COc1cccc2cc(N(C)c3nc(C)nc4ccsc34)ccc12

>  <assaySystem>
UACC-62 melanoma

>  <growth, %>
43.4

$$$$
>  <molecule>
COc1cc2nc(NC3CCC3)nc(NC3CCN(C(C)C)CC3)c2cc1OC

>  <assaySystem>
UACC-62 melanoma

>  <growth, %>
83.5

$$$$
>  <molecule>
CCCN1C(=O)N(CCC)C2C1NN=c1s/c(=C3\C(=O)N(C(C)C)c4ccccc43)c(=O)n12 (stereo unspecified)

>  <assaySystem>
UACC-62 melanoma

>  <growth, %>
31.5

$$$$

We next turn to a different molecule, shown below.
Query: What does the record list as growth for COc1cc2c(cc1OC)C(=O)C(CC1CCN(C(=O)Nc3ccc(C)cc3)CC1)C2 (stereo unspecified) ?
Response: 79.9
